FYI, the data here is from patent US8609708B2.

- Tested target: CYP2C9 (Homo sapiens (Human), UniProt P11712)
- Sequence (P11712 whole entry): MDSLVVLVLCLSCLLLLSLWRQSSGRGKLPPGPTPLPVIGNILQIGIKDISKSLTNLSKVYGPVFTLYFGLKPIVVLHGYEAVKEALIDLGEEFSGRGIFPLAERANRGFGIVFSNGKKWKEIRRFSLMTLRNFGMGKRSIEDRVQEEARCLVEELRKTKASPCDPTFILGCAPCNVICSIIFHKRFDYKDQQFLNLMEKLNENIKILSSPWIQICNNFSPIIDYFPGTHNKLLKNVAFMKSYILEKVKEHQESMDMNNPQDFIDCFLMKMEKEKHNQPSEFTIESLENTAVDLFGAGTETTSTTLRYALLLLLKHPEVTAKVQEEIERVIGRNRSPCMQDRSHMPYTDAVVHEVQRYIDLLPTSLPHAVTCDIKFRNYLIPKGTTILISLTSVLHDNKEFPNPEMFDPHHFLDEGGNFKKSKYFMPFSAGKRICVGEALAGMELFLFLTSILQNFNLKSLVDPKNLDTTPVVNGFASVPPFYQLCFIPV
- Test protocol: CYP2C9 Vivid blue substrate O-dealkylation inhibition
- Type: biochemical
- Experimental parameters: human, pH 8
pIC50: −log10 of the molar value.
Quantity name: pIC50

- Compound: "c1cncc(-c2ccc(CNCc3ccc(-c4cccnc4)s3)s2)c1 [Compound 38b]"
  Quantity name: "pIC50"
  Experimental result: 6.15

###

- Tested target: human CYP2A6 (Homo sapiens (Human), UniProt P11509)
- Sequence (P11509 whole entry): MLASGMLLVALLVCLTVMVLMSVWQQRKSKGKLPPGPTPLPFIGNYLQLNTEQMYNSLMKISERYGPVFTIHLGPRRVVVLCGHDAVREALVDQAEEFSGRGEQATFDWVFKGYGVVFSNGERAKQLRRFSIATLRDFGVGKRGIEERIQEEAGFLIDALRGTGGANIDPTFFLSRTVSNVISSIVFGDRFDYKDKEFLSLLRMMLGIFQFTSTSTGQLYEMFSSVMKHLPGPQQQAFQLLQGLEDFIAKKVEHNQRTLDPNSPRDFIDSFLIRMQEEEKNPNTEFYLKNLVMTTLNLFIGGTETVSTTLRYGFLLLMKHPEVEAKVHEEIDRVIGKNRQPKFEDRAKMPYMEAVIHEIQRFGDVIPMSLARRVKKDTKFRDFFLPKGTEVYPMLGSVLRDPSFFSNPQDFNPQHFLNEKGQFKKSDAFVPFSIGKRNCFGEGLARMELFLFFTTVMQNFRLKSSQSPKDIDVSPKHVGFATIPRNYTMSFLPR
- Test protocol: CYP2A6 mediated coumarin 7-hydroxylation inhibition
- Experimental parameters: read-out: CYP2A6 IC50; coumarin 7-hydroxylation

- Compound: "Cc1ccsc1-c1cncc(-c2sccc2C)c1 [TD-IV-011 SSP 33]"
  Tested target: "human CYP2A6 (Homo sapiens (Human), UniProt P11509)"
  Value comparator: "="
  IC50 [µM]: 1.63
- Compound: "c1cncc([C@@H]2CCCN2)c1 [Compound 90, Nornicotine, reference compound]"
  Tested target: "human CYP2A6 (Homo sapiens (Human), UniProt P11509)"
  Value comparator: "≥"
  IC50 [µM]: 400
- Compound: "Cc1cncc(-c2sccc2C)c1 [Compound 71]"
  Tested target: "human CYP2A6 (Homo sapiens (Human), UniProt P11509)"
  Value comparator: "="
  IC50 [µM]: 66
- Compound: "C(#Cc1ccsc1)c1cccnc1 [Compound 68]"
  Tested target: "human CYP2A6 (Homo sapiens (Human), UniProt P11509)"
  Value comparator: "="
  IC50 [µM]: 61.2
- Compound: "CN1CCCC[C@H]1c1cccnc1 [Compound 94, N-Methylanabasine, reference compound]"
  Tested target: "human CYP2A6 (Homo sapiens (Human), UniProt P11509)"
  Value comparator: "≥"
  IC50 [µM]: 400
- Compound: "NCc1ccc(-c2ccccc2)s1 [TD-VIII-089]"
  Tested target: "human CYP2A6 (Homo sapiens (Human), UniProt P11509)"
  Value comparator: "="
  IC50 [µM]: 1.16
- Compound: "C[N+]1([O-])CCC[C@H]1c1cccnc1 (stereo partly drawn) [Compound 92, Nicotine N-1′-Oxide, reference compound]"
  Tested target: "human CYP2A6 (Homo sapiens (Human), UniProt P11509)"
  Value comparator: "≥"
  IC50 [µM]: 400
- Compound: "Cc1cncc(-c2ccsc2)c1 [TD-IV-049 29]"
  Tested target: "human CYP2A6 (Homo sapiens (Human), UniProt P11509)"
  Value comparator: "="
  IC50 [µM]: 1
- Compound: "SCc1ccc(-c2cccnc2)o1 [TD-V-111 31]"
  Tested target: "human CYP2A6 (Homo sapiens (Human), UniProt P11509)"
  Value comparator: "<"
  IC50 [µM]: 1.5
- Compound: "Cc1cnc(N)c(-c2sccc2C)c1 [Compound 42]"
  Tested target: "human CYP2A6 (Homo sapiens (Human), UniProt P11509)"
  Value comparator: "="
  IC50 [µM]: 11.5
- Compound: "Cn1cccc1-c1cccnc1 [Compound 19, β-Nicotyrine, reference compound]"
  Tested target: "human CYP2A6 (Homo sapiens (Human), UniProt P11509)"
  Value comparator: "="
  IC50 [µM]: 2.2
- Compound: "c1ccc(Cn2cnc(-c3cccnc3)c2)cc1 [TD-II-111]"
  Tested target: "human CYP2A6 (Homo sapiens (Human), UniProt P11509)"
  Value comparator: "="
  IC50 [µM]: 1.39
- Compound: "Cc1cccnc1-c1cccnc1 [Compound 82]"
  Tested target: "human CYP2A6 (Homo sapiens (Human), UniProt P11509)"
  Value comparator: "="
  IC50 [µM]: 262
- Compound: "Clc1cc(-c2cccnc2)c(Cl)s1 [TD-III-081 38]"
  Tested target: "human CYP2A6 (Homo sapiens (Human), UniProt P11509)"
  Value comparator: "="
  IC50 [µM]: 2.41

###

- Tested target: CYP2E1 (Homo sapiens (Human))
- Sequence (P05181 whole entry): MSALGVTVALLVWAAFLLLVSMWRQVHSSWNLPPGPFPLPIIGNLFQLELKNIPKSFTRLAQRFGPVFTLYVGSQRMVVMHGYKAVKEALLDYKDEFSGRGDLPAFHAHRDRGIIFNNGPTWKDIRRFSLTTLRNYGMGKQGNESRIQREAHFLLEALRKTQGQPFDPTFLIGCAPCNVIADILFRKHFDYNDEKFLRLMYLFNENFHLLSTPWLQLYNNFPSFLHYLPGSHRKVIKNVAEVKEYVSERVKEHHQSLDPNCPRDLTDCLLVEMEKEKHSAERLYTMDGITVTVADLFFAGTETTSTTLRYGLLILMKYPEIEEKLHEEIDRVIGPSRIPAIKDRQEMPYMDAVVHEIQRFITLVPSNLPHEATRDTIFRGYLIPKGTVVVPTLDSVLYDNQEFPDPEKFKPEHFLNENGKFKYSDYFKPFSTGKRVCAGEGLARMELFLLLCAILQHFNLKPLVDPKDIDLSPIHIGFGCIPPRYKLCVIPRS
- Test protocol: CYP2E1 Vivid blue substrate O-dealkylation inhibition
- Format: biochemical
- Experimental parameters: insect cell microsomes expressing CYP2E1, 0.2M potassium phosphate buffer; mean of at least 3 determinations ± SD; read-out: IC50 ± SD 2E1
Output condition met for records whose IC50 is lower than 40 µM, condition not met for records at or above 40 µM.

- Molecule: "c1cncc(-c2ccc(CNCc3ccc(-c4cccnc4)s3)s2)c1 [Compound 38b]"
  Tested target: "CYP2E1 (Homo sapiens (Human))"
  Answer label: "condition met"
- Molecule: "Cc1cscc1-c1ccc(F)nc1"
  Tested target: "CYP2E1 (Homo sapiens (Human))"
  Answer label: "condition not met"
- Molecule: "c1cncc(-c2c[nH]cn2)c1"
  Tested target: "CYP2E1 (Homo sapiens (Human))"
  Answer label: "condition met"
- Molecule: "NCc1ccc(-c2cccnc2)o1 [Compound 39a, (5-(Pyridin-3-yl)furan-2-yl)methanamine]"
  Tested target: "CYP2E1 (Homo sapiens (Human))"
  Answer label: "condition not met"
- Molecule: "c1ccc(Cn2cnc(-c3cccnc3)c2)cc1"
  Tested target: "CYP2E1 (Homo sapiens (Human))"
  Answer label: "condition met"
- Molecule: "Cc1cscc1-c1cccnc1"
  Tested target: "CYP2E1 (Homo sapiens (Human))"
  Answer label: "condition met"
- Molecule: "c1cncc(-c2cccnc2)c1"
  Tested target: "CYP2E1 (Homo sapiens (Human))"
  Answer label: "condition not met"
- Molecule: "Nc1ccc(-c2cccnc2)s1"
  Tested target: "CYP2E1 (Homo sapiens (Human))"
  Answer label: "condition met"

###

- Tested target: human CYP2A6 (Homo sapiens (Human))
- Experimental parameters: human, pH 7.5
pIC50: −log10 of the molar value.
Lab note: compare pIC50 against 5. Equal or greater, write y. Smaller, write n.

- Compound: "c1ccc(CN2CCN=C2c2cccnc2)cc1"
  Answer label: "n"
- Compound: "c1cncc(-c2nnn[nH]2)c1"
  Answer label: "n"
- Compound: "c1cncc([C@@H]2CCCCN2)c1"
  Answer label: "n"
- Compound: "Cn1cnc(-c2cccnc2)c1"
  Answer label: "y"
- Compound: "c1ccc(-c2cccnc2)nc1 [Compound 66, 2,3′-Bipyridyl, reference compound]"
  Answer label: "n"
- Compound: "CN1C(=O)CC[C@H]1c1cccnc1 [Compound 91, Cotinine, reference compound]"
  Answer label: "n"
- Compound: "O/N=C/c1ccc(-c2cccnc2)o1 [TD-II-065 ESP trans isomer]"
  Answer label: "y"
- Compound: "COc1ccc(-c2sccc2C)cn1"
  Answer label: "n"
- Compound: "C1=CC[C@@H](c2cccnc2)NC1"
  Answer label: "n"
- Compound: "c1cncc(-c2cccnc2)c1"
  Answer label: "y"
- Compound: "Cc1ccsc1-c1ccc(F)nc1"
  Answer label: "y"
- Compound: "c1cncc(C2=NCCCC2)c1 [Compound 74, Anabaseine, reference compound]"
  Answer label: "n"
- Compound: "NCc1ccc(-c2cccnc2)o1 [Compound 2]"
  Answer label: "y"
- Compound: "CN(C)CC#Cc1cccnc1"
  Answer label: "n"
- Compound: "Cc1cscc1-c1cccnc1 [TD-I-103]"
  Answer label: "y"
- Compound: "NCc1ccc(-c2cccnc2)o1 [Compound 39a, (5-(Pyridin-3-yl)furan-2-yl)methanamine]"
  Answer label: "y"

###

- Tested target: CYP2C19 relative to CYP2A6 (Homo sapiens (Human), UniProt P33261)
- Sequence (P33261 whole entry): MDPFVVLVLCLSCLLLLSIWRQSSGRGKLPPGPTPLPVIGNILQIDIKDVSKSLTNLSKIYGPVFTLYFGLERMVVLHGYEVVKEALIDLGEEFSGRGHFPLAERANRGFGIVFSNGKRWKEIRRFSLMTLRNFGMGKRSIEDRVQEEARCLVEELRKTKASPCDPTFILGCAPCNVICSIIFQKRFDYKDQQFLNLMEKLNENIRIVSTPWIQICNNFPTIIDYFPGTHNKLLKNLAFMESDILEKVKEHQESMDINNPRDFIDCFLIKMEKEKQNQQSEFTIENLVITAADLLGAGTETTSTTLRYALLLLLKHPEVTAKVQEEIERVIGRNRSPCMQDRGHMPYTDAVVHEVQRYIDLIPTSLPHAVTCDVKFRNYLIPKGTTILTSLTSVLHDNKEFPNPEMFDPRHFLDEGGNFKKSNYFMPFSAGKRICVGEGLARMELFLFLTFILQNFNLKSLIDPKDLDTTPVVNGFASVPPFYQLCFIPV
- Test protocol: CYP2C19 Vivid blue substrate O-dealkylation inhibition
- Type: biochemical
- Experimental parameters: human, pH 8, 2C19/2A6 selectivity ratio (IC50 CYPX/IC50 CYP2A6)

- Compound: "NCc1ccc(-c2cccnc2)o1 [Compound 39a, (5-(Pyridin-3-yl)furan-2-yl)methanamine]"
  selectivity ratio at 40 min: 82

###

- Tested target: UniProtKB P33261
- Test protocol: CYP2C19 Vivid blue substrate O-dealkylation inhibition
- Format: biochemical
- Experimental parameters: insect cell microsomes expressing CYP2C19, 0.2M potassium phosphate buffer; mean of at least 3 determinations ± SD; read-out: IC50 ± SD 2C19

- Compound: "c1cncc(-c2ccc(CNCc3ccc(-c4cccnc4)s3)s2)c1 [Compound 38b]"
  Value comparator: "="
  IC50 (µM): 0.21
- Compound: "NCc1ccc(-c2cccnc2)o1 [Compound 39a, (5-(Pyridin-3-yl)furan-2-yl)methanamine]"
  Value comparator: "="
  IC50 (µM): 22
- Compound: "c1cncc(-c2cccnc2)c1"
  Value comparator: ">"
  IC50 (µM): 300
- Compound: "c1cncc(-c2c[nH]cn2)c1"
  Value comparator: "="
  IC50 (µM): 53.5
- Compound: "Cc1cscc1-c1cccnc1"
  Value comparator: "="
  IC50 (µM): 24.9
- Compound: "Cc1cscc1-c1ccc(F)nc1"
  Value comparator: "="
  IC50 (µM): 40.9
- Compound: "ON=Cc1ccc(-c2cccnc2)o1 [Compound 37b]"
  Value comparator: "="
  IC50 (µM): 279
- Compound: "Nc1ccc(-c2cccnc2)s1"
  Value comparator: "="
  IC50 (µM): 3.2
- Compound: "c1ccc(Cn2cnc(-c3cccnc3)c2)cc1"
  Value comparator: "="
  IC50 (µM): 12.1
- Compound: "ON=Cc1ccc(-c2cccnc2)o1 [Compound 37a]"
  Value comparator: "="
  IC50 (µM): 118
